Where do these numbers come from? They come from the supplement of paper PMC10567573.

As shown below, each of these variants has a reported protein stability index value.
B1: UFD1L (parent)
chain: EAGGRFVAFSGEGQSLRKKGRKP

Variants of: B1
Test: protein stability index of a GFP-peptide fusion (GPS, HEK-293T) (PSI 1-6); higher = more stable;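 note: lentivirally expressed fusions sorted by FACS into six bins by GFP to DsRed ratio, PSI derived from sequencing read proportions per bin multiplied by bin number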
Conditions: c terminus: native
Number, no unit, nothing else.

Some solved entries appear below for comparison.
E1T : 2.17
K19D : 1.74
F6D : 4.59
L16Y : 2.51
S15T : 1.84

[in] // protein stability index lookup, key: K18H
[out] 1.24

[in] Then this variant: G3L
[out] 3.08

[in] Then this variant: V7Y
[out] 1.12

[in] Then this variant: F9T
[out] 2.28

[in] Then this variant: R5N
[out] 2.6

[in] Then this variant: F9V
[out] 2.02

[in] Then this variant: L16W
[out] 1.03

[in] Then this variant: R17L
[out] 2.18

[in] Then this variant: A8I
[out] 1.11

[in] Then this variant: A8T
[out] 1.77

[in] Then this variant: G13A
[out] 2.22

[in] Then this variant: K18E
[out] 1.49

[in] Then this variant: G11N
[out] 1.82

[in] Then this variant: G13P
[out] 2.73

[in] Then this variant: G4L
[out] 1.25

[in] Then this variant: G20A
[out] 3.91

[in] Then this variant: Q14V
[out] 2.4
